Collected set of IC50 measured with UniProt:Q9Y5N1 across studies.

Input line: Please give the documented IC50 of `CC(C)c1ccc(C(=O)N2CC(C(=O)N3CCCN(C4CCC4)CC3)C2)cc1`
Output line: < 50 nM

Input line: Please give the documented IC50 of `CCc1nn2c(C)cc(C)nc2c1Cc1ccc(-c2nnc([C@H]3CC[C@H](N)CC3)o2)cc1`
Output line: > 30000 nM

Input line: Please give the documented IC50 of `CS(=O)(=O)c1ccc(C(=O)N2CC(C(=O)N3CCCN(C4CCC4)CC3)C2)cc1`
Output line: < 50 nM

Input line: Please give the documented IC50 of `N#Cc1ccc(S(=O)(=O)N2CC(C(=O)N3CCCN(C4CCC4)CC3)C2)cc1`
Output line: < 50 nM

Input line: Please give the documented IC50 of `CCc1nn2c(C)cc(C)nc2c1Cc1ccc(OCCN2CCN[C@@H](COC)C2)cc1`
Output line: > 30000 nM

Input line: Please give the documented IC50 of `Cc1ccncc1C(=O)N1CCC2(CC1)CC(C(=O)N1CCN(C3CCC3)CC1)C2`
Output line: 41.5 nM

Input line: Please give the documented IC50 of `O=C(c1ccc(OC2CCOCC2)cc1)N1CC(C(=O)N2CCCN(C3CCC3)CC2)C1`
Output line: < 50 nM

Input line: Please give the documented IC50 of `CS(=O)(=O)N1CCC2(CC1)CC(C(=O)N1CCN(C3CCC3)CC1)C2`
Output line: 7.29 nM

Input line: Please give the documented IC50 of O=C([C@@H]1C[C@H]1c1cccc(N2CCCCC2=O)c1)N1CCN(C2CCC2)CC1 (single isomer, unassigned; enantiomer 2)
Output line: 733 nM

Input line: Please give the documented IC50 of `O=C(C1CN(S(=O)(=O)C2CCCCC2)C1)N1CCCN(C2CCC2)CC1`
Output line: < 50 nM

Input line: Please give the documented IC50 of O=C(C1CC12CCN(C1CCOCC1)CC2)N1CCN(c2cccnc2)CC1 (centres unmarked)
Output line: 308 nM

Input line: Please give the documented IC50 of `CCc1nn2c(C)cc(C)nc2c1Cc1ccc(-n2cc(CN3CCNCC3)cn2)cc1`
Output line: > 30000 nM

Input line: Please give the documented IC50 of `O=C(c1ccc(Oc2ccccc2)cc1)N1CC(C(=O)N2CCCN(C3CCC3)CC2)C1`
Output line: < 50 nM

Input line: Please give the documented IC50 of `O=C(c1ccc(-n2cncn2)nc1)N1CC(C(=O)N2CCCN(C3CCC3)CC2)C1`
Output line: < 50 nM

----------
pIC50: −log10 of the molar value.
Collected set of pIC50 measured with Histamine H3 receptor (Homo sapiens) across studies.

Input line: Please give the documented pIC50 of `Cc1ncc(C(=O)N2CC(C(=O)N3CCCN(C4CCC4)CC3)C2)cn1`
Output line: > 7.30

Input line: Please give the documented pIC50 of `CCC(=O)N1CC(C(=O)N2CCCN(C3CCC3)CC2)C1`
Output line: > 7.30

Input line: Please give the documented pIC50 of `O=C(NCC1CCOCC1)N1CC(C(=O)N2CCCN(C3CCC3)CC2)C1`
Output line: > 7.30

Input line: Please give the documented pIC50 of `CCc1nn2c(C)cc(C)nc2c1Cc1ccc(/C=C/C[C@]2(O)CCN[C@@H](C)C2)cc1`
Output line: < 4.52

Input line: Please give the documented pIC50 of `O=C(c1ccc(-c2nccs2)cc1)N1CC(C(=O)N2CCCN(C3CCC3)CC2)C1`
Output line: > 7.30

Input line: Please give the documented pIC50 of `CNC(=O)c1ccc(C(=O)N2CC(C(=O)N3CCCN(C4CCC4)CC3)C2)cn1`
Output line: > 7.30

Input line: Please give the documented pIC50 of `Cc1ccc(C(=O)N2CC(C(=O)N3CCN(C4CCC4)CC3)C2)cn1`
Output line: 5.30 to 7.00

Input line: Please give the documented pIC50 of `O=C(c1ccc(-c2ccncc2)cc1)N1CC(C(=O)N2CCCN(C3CCC3)CC2)C1`
Output line: > 7.30

Input line: Please give the documented pIC50 of `Cc1[nH]cnc1CCCOCc1cccc(I)c1`
Output line: > 7.30

Input line: Please give the documented pIC50 of `Cc1ccc(C(=O)N2CC(C(=O)N3CCCN(C4CCC4)CC3)C2)cn1`
Output line: > 7.30

Input line: Please give the documented pIC50 of `O=C(C1CN(S(=O)(=O)c2ccccc2)C1)N1CCCN(C2CCC2)CC1`
Output line: > 7.30

Input line: Please give the documented pIC50 of `CCc1nn2c(C)cc(C)nc2c1Cc1ccc(-n2cc(CN3CCC(N)CC3)cn2)cc1`
Output line: < 4.52

Input line: Please give the documented pIC50 of CS(=O)(=O)Nc1cccc([C@@H]2C[C@H]2C(=O)N2CCN(C3CCC3)CC2)c1 (relative stereo)
Output line: 8.07

Input line: Please give the documented pIC50 of `N#Cc1cccc(C(=O)N2CCC3(CC2)CC(C(=O)N2CCN(C4CCC4)CC2)C3)c1`
Output line: 7.61

Input line: Please give the documented pIC50 of `CN(CC1CCCCC1)C(=O)N1CC(C(=O)N2CCCN(C3CCC3)CC2)C1`
Output line: > 7.30

Input line: Please give the documented pIC50 of O=C(C1CC12CCN(C1CCC1)CC2)N1CCN(C2CCOCC2)CC1 (stereo not drawn)
Output line: 7.17

Input line: Please give the documented pIC50 of CN1CCN(C(=O)C2CC23CCN(C2CCOCC2)CC3)CC1 (stereo not drawn)
Output line: 5.92

Input line: Please give the documented pIC50 of `Cc1cc(C)n(-c2ccc(C(=O)N3CC(C(=O)N4CCCN(C5CCC5)CC4)C3)cc2)n1`
Output line: > 7.30

Input line: Please give the documented pIC50 of `COc1ccc(S(=O)(=O)N2CC(C(=O)N3CCCN(C4CCC4)CC3)C2)cc1`
Output line: 7.00 to 7.30

Input line: Please give the documented pIC50 of `O=C([C@H]1C[C@@H]1c1ccc(-c2cncnc2)cc1)N1CCN(C2CCC2)CC1`
Output line: 7.69

Input line: Please give the documented pIC50 of `C[C@H]1CCCN(CCCOc2ccc(N3CCC4(CC3)CN(C3CCCC3)C(=O)CO4)cc2)C1`
Output line: 8.92
